- subject.of.test: OsWRKY34 (Oryza sativa, UniProt Q0JBA9 1-250)
- Sequence (Q0JBA9 entry or part of it): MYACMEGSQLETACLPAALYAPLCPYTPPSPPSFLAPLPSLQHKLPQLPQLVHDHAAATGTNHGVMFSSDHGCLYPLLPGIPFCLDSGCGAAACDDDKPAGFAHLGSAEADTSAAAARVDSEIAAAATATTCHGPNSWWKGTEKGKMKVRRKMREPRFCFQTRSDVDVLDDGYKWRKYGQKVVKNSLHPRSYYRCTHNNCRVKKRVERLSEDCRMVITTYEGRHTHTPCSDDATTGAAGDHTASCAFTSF
- assay: protein-binding microarray (RPBM); PBS, 2% BSA, 51.3 ng/ul salmon testes DNA, 50 uM zinc acetate, 200 nM TF, 25 C, 1 h; high values mean tight binding
- setup.conditions: protein: recombinant; tags: N-terminal polyhistidine and DsRed monomer fusion (pET32a); label: CyDye5-dUTP incorporated in the synthesized complementary strand; 3' TTTTT single-stranded linker to array surface; dsDNA, one strand shown
Over roughly 68,000 sequences, “fluorescence intensity (a.u.)” has its median near 9,100; the highest 2% begin near 16,000. The entries come from a sample that favours the highest values as a whole.
binding signal for assorted sequences
readout.kind: binding signal

[[record]]
ordered_residues = "CCATTCCGCCCACTAGCTTTCTCTCTCTATTTTCTTTTTCCGGAGTCACCTAGTGCAG"
result = "16800 fluorescence intensity (a.u.)"

[[record]]
ordered_residues = "ATTTCTAGTCATGCCCGATAACCACTCCGGCACGACCACGCGGAGTCACCTAGTGCAG"
result = "8150 fluorescence intensity (a.u.)"

[[record]]
ordered_residues = "TCGTTCGTTGGTTTGTTTTTTTTTTCTTTTCTCGCGTACACGGAGTCACCTAGTGCAG"
result = "11600 fluorescence intensity (a.u.)"

[[record]]
ordered_residues = "GGTTTGTTTGGAGGCGCAATGTTTCTCACCCTGTCGTTCCCGGAGTCACCTAGTGCAG"
result = "12700 fluorescence intensity (a.u.)"

[[record]]
ordered_residues = "AAGTTTTCGCGTCCAACTTTCATCGTTCGTCTTATTTGAACGGAGTCACCTAGTGCAG"
result = "10600 fluorescence intensity (a.u.)"

[[record]]
ordered_residues = "CGGTTCTTGTCGTAGAAAGCTCCGTGTTATCGTTTATATTCGGAGTCACCTAGTGCAG"
result = "8090 fluorescence intensity (a.u.)"

[[record]]
ordered_residues = "TTTGCACACGGGTGACTCGTCTCTTTGTACTCACTCTCTCCGGAGTCACCTAGTGCAG"
result = "9840 fluorescence intensity (a.u.)"

[[record]]
ordered_residues = "TCGAACTATGTTTCTGGAGTTGTTTGTGTTAAAGTCCCAACGGAGTCACCTAGTGCAG"
result = "8860 fluorescence intensity (a.u.)"

[[record]]
ordered_residues = "TTCCTTTTTCTATTTTTGGAATTTATTTTAATTTTTATTTCGGAGTCACCTAGTGCAG"
result = "8910 fluorescence intensity (a.u.)"

[[record]]
ordered_residues = "ATATTGTTGACTTTTTAGCACATGTTTAACCGTTCATCTTCGGAGTCACCTAGTGCAG"
result = "19600 fluorescence intensity (a.u.)"

[[record]]
ordered_residues = "ATCTTTTTCTACTATCACTATATCATATTCTATTTTTTTTCGGAGTCACCTAGTGCAG"
result = "10500 fluorescence intensity (a.u.)"

[[record]]
ordered_residues = "CCTATTCTAACACTGACGGGTGGGTCTCACAGGGTGACTCCGGAGTCACCTAGTGCAG"
result = "16900 fluorescence intensity (a.u.)"

[[record]]
ordered_residues = "TTGCAGCTGTCCTCTCTACCTTAACCCTTTGACCAGTGCTCGGAGTCACCTAGTGCAG"
result = "9130 fluorescence intensity (a.u.)"

[[record]]
ordered_residues = "TTTTCTATTTCCCACTACTTTTCGTCATTTTTCTAATATTCGGAGTCACCTAGTGCAG"
result = "18100 fluorescence intensity (a.u.)"

[[record]]
ordered_residues = "CTCGCCGCGTGCTCCTTTACTGCTCTCTGCTCGCGCAGGACGGAGTCACCTAGTGCAG"
result = "9230 fluorescence intensity (a.u.)"

[[record]]
ordered_residues = "TGTAGTAATTGGGTATCTTCATCATTTGTCCTAAAAAAGTCGGAGTCACCTAGTGCAG"
result = "8080 fluorescence intensity (a.u.)"

[[record]]
ordered_residues = "CCGTTGACTTTTTAGTACATGTTTAACCGTTCGTCTTATTCGGAGTCACCTAGTGCAG"
result = "38600 fluorescence intensity (a.u.)"

[[record]]
ordered_residues = "ATCTTAACCGCAACAGCTTTGCATCTTTTTAGTACCTATTCGGAGTCACCTAGTGCAG"
result = "8170 fluorescence intensity (a.u.)"

[[record]]
ordered_residues = "CCCCACATTTTCTTTCACCTTCTCTTCCATTCCACCTCTCCGGAGTCACCTAGTGCAG"
result = "10100 fluorescence intensity (a.u.)"

[[record]]
ordered_residues = "ACTTTCTTTTTTTCTTTTTAACCTTGACCTTTACTGGCATCGGAGTCACCTAGTGCAG"
result = "8690 fluorescence intensity (a.u.)"

[[record]]
ordered_residues = "GACTTTTTAGCACATGTTTAACCGTTCGTCTTATTCAAAACGGAGTCACCTAGTGCAG"
result = "12100 fluorescence intensity (a.u.)"

[[record]]
ordered_residues = "CTAATACGTGGGTCTCACTATTGTCTTCTTGTTTGACTGACGGAGTCACCTAGTGCAG"
result = "10700 fluorescence intensity (a.u.)"

[[record]]
ordered_residues = "GAACAGCTCAGCTCACCGCATCCTTTGACTTTTTAACCAGCGGAGTCACCTAGTGCAG"
result = "18100 fluorescence intensity (a.u.)"

[[record]]
ordered_residues = "GCCTCTTTTTTGTCGCTCTCACTGTCTCACACCTACACGTCGGAGTCACCTAGTGCAG"
result = "16400 fluorescence intensity (a.u.)"

[[record]]
ordered_residues = "ACTTCCAAGTCTTCGACCGCGACACTCCTTACCCGCACGCCGGAGTCACCTAGTGCAG"
result = "8570 fluorescence intensity (a.u.)"

[[record]]
ordered_residues = "CTCTAACAGTCTGCTATTATATCTGCTCTCATGCGTCATCCGGAGTCACCTAGTGCAG"
result = "11100 fluorescence intensity (a.u.)"

[[record]]
ordered_residues = "CCTCTCTTTCTCTCACTCTCTGTGACTCTTGTCTTTTTGTCGGAGTCACCTAGTGCAG"
result = "8390 fluorescence intensity (a.u.)"

[[record]]
ordered_residues = "TTTCTCTTTGCACCCTAGCCTCATGTTCTTCTTCTTCCTCCGGAGTCACCTAGTGCAG"
result = "8680 fluorescence intensity (a.u.)"

[[record]]
ordered_residues = "ATCACCTTGCTCGATCGCCTCCGTTGTTTTGCACTAAATTCGGAGTCACCTAGTGCAG"
result = "8620 fluorescence intensity (a.u.)"

[[record]]
ordered_residues = "ATCGCGAAGTTCGCGACCCGATTCCTCTCCGCCCGCCATGCGGAGTCACCTAGTGCAG"
result = "8380 fluorescence intensity (a.u.)"

[[record]]
ordered_residues = "CCAATCTAGCATTTAAATAGCCCATATTTGTCTAATTTCTCGGAGTCACCTAGTGCAG"
result = "8400 fluorescence intensity (a.u.)"

[[record]]
ordered_residues = "CCTTAACACTTAATCCATGTGATGCATCTGTCATGCAACTCGGAGTCACCTAGTGCAG"
result = "8250 fluorescence intensity (a.u.)"

[[record]]
ordered_residues = "TGTGGATGGCGTGGATAAGTTGACAGTTGAAAATACAAAACGGAGTCACCTAGTGCAG"
result = "9130 fluorescence intensity (a.u.)"

[[record]]
ordered_residues = "TTTTTAGTACATGTTTGACCGTTCGTCTTATTCAAAAAATCGGAGTCACCTAGTGCAG"
result = "10700 fluorescence intensity (a.u.)"

[[record]]
ordered_residues = "TTCCTCCGTTTTTTTTATTCCTGCAACTAAAAGGTATTCTCGGAGTCACCTAGTGCAG"
result = "8860 fluorescence intensity (a.u.)"

[[record]]
ordered_residues = "ATATGCTGTCTTTTACTTGACTTGTAGTGCAACCTTCCACCGGAGTCACCTAGTGCAG"
result = "12100 fluorescence intensity (a.u.)"

[[record]]
ordered_residues = "AGATGATGTCATTGACCATACAAGTTGAAAATAGGAGCAACGGAGTCACCTAGTGCAG"
result = "63300 fluorescence intensity (a.u.)"

